Data origin, for the record: patent EP0951284B1

biological target: Human erythrocyte acetylcholinesterase (Homo sapiens, UniProt P22303)
Sequence (P22303 32-617 isoform P22303-2 limits assumed): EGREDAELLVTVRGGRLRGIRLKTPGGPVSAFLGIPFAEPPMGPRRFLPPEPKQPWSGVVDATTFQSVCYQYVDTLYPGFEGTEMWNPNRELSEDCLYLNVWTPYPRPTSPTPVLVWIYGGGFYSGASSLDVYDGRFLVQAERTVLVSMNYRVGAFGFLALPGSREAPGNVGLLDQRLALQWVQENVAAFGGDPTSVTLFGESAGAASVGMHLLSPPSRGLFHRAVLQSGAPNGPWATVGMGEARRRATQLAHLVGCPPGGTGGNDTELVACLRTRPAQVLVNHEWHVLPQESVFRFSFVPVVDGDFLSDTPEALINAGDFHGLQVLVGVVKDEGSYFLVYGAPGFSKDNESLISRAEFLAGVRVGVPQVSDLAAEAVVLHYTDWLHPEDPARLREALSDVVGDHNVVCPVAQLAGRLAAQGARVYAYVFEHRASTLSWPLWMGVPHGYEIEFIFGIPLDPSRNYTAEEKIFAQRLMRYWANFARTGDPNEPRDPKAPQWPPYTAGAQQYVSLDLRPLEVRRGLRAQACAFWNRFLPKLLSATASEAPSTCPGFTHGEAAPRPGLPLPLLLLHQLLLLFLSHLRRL
Counter-ions that a name gives are not always drawn.
QUANTITY_NAME: IC50 (µM)
Return type: number; implicit unit µM.

Consider the reported IC50 for these compounds:
> print(dat)
                                   compound  quantity.name  unit.annotation  recorded.value
1  C#CCN(C)C(C)Cc1cccc(OC(=O)N(C)C)c1 (racemic) [Compound 20, HCl]           IC50               µM             1.7
2  C#CCNCCc1cccc(OC(=O)N(C)C)c1 [Compound 11]           IC50               µM            0.82

Please give the measured IC50 for this compound: CN(C)C(=O)Oc1cccc(CCN)c1 [Compound 1]
0.31

Please give the measured IC50 for this compound: C#CCN(C)[C@@H](C)Cc1cccc(OC(=O)N(C)CCCCCC)c1 [Compound 38]
3.1

Please give the measured IC50 for this compound: CCN(C)C(=O)Oc1cccc(CCN)c1 [Compound 4]
48.4

Please give the measured IC50 for this compound: CNCCc1cccc(OC(=O)N(C)C)c1 [Compound 3]
0.31
